# tested_system: Neu5Ac(a2-6)Gal(b1-4)GlcNAc(b1-2)Man(a1-6)Man(b1-4)GlcNAc(b1-4)GlcNAc
# test_name: glycan array binding signal (z-score within array); higher = stronger binding
# assay_setup: glycan notation: IUPAC condensed, linker removed
The sample as a whole holds a higher share of the strongest signals than the screen did.
glycan array binding signal (z-score) values, listed per item
property_name: glycan array binding signal (z-score)

MpAFP NterminalRI GFP (Marinomonas primoryensis) (protein) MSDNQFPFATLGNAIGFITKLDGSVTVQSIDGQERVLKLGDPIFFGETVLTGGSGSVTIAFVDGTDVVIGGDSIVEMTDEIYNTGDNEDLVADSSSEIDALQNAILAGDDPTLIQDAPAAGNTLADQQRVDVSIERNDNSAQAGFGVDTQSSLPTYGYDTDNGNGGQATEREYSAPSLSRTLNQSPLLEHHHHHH | -0.385
Gal-9-hFc (Mus musculus), O08573-2 (protein) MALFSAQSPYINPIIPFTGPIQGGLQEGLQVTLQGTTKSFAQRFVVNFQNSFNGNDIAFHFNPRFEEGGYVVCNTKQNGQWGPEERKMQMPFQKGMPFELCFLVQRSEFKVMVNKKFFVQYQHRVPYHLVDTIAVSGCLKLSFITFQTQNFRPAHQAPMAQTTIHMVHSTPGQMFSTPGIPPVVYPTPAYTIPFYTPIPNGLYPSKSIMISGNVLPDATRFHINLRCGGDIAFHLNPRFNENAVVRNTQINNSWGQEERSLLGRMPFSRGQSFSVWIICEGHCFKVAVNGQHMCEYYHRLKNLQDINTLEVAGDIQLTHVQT | -0.192
pTFF2 (Sus scrofa), P01359 (protein) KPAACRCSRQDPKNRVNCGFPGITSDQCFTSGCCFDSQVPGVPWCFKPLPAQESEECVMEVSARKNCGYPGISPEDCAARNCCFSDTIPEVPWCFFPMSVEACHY | 2.29
